# Test system: RXRa homodimer (NR concentration 180 nM)
# assay-text: PBM binding z-score (relative to random genomic background probes); higher = stronger binding; sequences stand for … in GC…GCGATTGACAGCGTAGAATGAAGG
Just so you know, the groups by PBM binding z-score go like this: I = under 1, II = from 1 up to 4, III = 4 and over

{"sequence-string": "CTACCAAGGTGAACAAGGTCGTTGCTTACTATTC", "assigned-label": "II"}
{"sequence-string": "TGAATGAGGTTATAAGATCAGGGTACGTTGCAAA", "assigned-label": "II"}
{"sequence-string": "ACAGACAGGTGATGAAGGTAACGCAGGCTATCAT", "assigned-label": "I"}
{"sequence-string": "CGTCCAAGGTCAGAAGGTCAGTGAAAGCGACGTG", "assigned-label": "III"}
{"sequence-string": "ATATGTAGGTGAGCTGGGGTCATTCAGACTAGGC", "assigned-label": "III"}

Which class holds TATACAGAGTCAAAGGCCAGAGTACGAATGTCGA ?
II

Textbook exercise: identify the category of the sequence given here, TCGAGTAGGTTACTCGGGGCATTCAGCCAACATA , according to its measured value.
I

Textbook exercise: identify the category of the sequence given here, TCATAGAGGTAATACAGGTGAAAGTCGGCATCTA , according to its measured value.
II

Hello team, could you let me know which band the following sequence falls into: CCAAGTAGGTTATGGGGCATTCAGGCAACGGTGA
I

State the band of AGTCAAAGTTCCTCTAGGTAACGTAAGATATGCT
I

# bin lookup: classify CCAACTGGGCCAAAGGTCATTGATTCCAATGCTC by its PBM binding z-score
III

Lab note: which band did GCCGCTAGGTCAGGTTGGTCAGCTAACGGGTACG land in?
II

###

// reported PBM binding z-score per item
# Tested on: PPARg:RXRa (NR concentration 180 nM, RXRa partner concentration 90 nM)
# assay-text: PBM binding z-score (relative to random genomic background probes); higher = stronger binding; sequences stand for … in GC…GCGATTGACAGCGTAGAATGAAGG
I'd appreciate a reply containing only the number, no unit.

Record excerpt, results attached:
{"sequence-string": "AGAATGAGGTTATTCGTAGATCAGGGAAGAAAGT", "PBM binding z-score": 1.64}
{"sequence-string": "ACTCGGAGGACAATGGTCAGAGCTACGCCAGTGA", "PBM binding z-score": 0.723}
{"sequence-string": "CCTACCGGGCCAAAAAGGTCATTGATGCCGATAA", "PBM binding z-score": 1.69}
{"sequence-string": "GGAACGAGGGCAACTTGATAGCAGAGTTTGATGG", "PBM binding z-score": 1.63}
{"sequence-string": "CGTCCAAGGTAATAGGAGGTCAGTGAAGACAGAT", "PBM binding z-score": 0.506}

Tell me the measured PBM binding z-score of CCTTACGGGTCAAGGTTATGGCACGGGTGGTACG , please.
4.26

What value of PBM binding z-score has been recorded for this entry: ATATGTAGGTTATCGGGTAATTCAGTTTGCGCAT
5.49

Look at this sequence and give its reported PBM binding z-score. ATCTCTTGGTAACAAGTTCAGTGAAAGAGAGGAC
-0.00548

What measured PBM binding z-score goes with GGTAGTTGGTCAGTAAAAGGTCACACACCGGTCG ?
2.7

Fill in the blank: the reported PBM binding z-score of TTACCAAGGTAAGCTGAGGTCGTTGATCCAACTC is ____.
-0.244

// returns reported PBM binding z-score for input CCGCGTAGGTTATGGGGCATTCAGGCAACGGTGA
0.613

Item under review: CAAACTAGGTCAAAGGTCAATGTCGAGCCAACCA . Reported PBM binding z-score?
14

Consider the sequence shown here: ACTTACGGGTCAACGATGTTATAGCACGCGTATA What is its recorded PBM binding z-score?
4.83

Suppose we examine the sequence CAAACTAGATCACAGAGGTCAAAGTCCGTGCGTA ; what PBM binding z-score value has been reported?
4.26

###

# Test system: PPARg:RXRa 90nM:30nM, anti-RXR (NR concentration 90 nM, RXRa partner concentration 30 nM)
# assay-text: PBM binding z-score (relative to random genomic background probes); higher = stronger binding; sequences stand for … in GC…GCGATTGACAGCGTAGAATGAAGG
reported-property: PBM binding z-score

Before answering, review these 5 worked examples.
{"sequence-string": "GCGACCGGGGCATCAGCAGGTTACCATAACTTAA", "target-or-system": "PPARg:RXRa 90nM:30nM, anti-RXR (NR concentration 90 nM, RXRa partner concentration 30 nM)", "PBM binding z-score": -0.899}
{"sequence-string": "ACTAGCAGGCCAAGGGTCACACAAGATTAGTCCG", "target-or-system": "PPARg:RXRa 90nM:30nM, anti-RXR (NR concentration 90 nM, RXRa partner concentration 30 nM)", "PBM binding z-score": 7.72}
{"sequence-string": "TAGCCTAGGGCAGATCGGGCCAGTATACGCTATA", "target-or-system": "PPARg:RXRa 90nM:30nM, anti-RXR (NR concentration 90 nM, RXRa partner concentration 30 nM)", "PBM binding z-score": -0.348}
{"sequence-string": "ATCTCTAGGTATCCAAGTTCAGTGAATGCCGAAC", "target-or-system": "PPARg:RXRa 90nM:30nM, anti-RXR (NR concentration 90 nM, RXRa partner concentration 30 nM)", "PBM binding z-score": 0.503}
{"sequence-string": "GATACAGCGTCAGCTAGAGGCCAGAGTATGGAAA", "target-or-system": "PPARg:RXRa 90nM:30nM, anti-RXR (NR concentration 90 nM, RXRa partner concentration 30 nM)", "PBM binding z-score": -1}

Attention now shifts to the item below.
Would you kindly share the measured PBM binding z-score for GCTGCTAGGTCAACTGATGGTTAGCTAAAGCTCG ?
1.99

###

# System: VDR homodimer (NR concentration 270 nM)
# assay-text: PBM binding z-score (relative to random genomic background probes); higher = stronger binding; sequences stand for … in GC…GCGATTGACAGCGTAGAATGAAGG
PBM binding z-score values for the sequences below.
Please state the value as a number alone, without comment.

Field: example entries. Status: answers known.
{"sequence-string": "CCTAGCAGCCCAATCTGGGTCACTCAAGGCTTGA", "reported-property": "PBM binding z-score", "measured-value": -0.324}
{"sequence-string": "CCAGACAGGTGAAAGGTAACTCATTCTGGTACGC", "reported-property": "PBM binding z-score", "measured-value": 0.0322}
{"sequence-string": "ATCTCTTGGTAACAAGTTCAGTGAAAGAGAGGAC", "reported-property": "PBM binding z-score", "measured-value": 2.61}
{"sequence-string": "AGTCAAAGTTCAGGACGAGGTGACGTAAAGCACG", "reported-property": "PBM binding z-score", "measured-value": 2.66}
{"sequence-string": "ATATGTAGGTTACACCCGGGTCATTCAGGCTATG", "reported-property": "PBM binding z-score", "measured-value": 2.67}

Recorded PBM binding z-score for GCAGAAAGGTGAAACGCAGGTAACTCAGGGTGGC , please?
-0.808

Param item = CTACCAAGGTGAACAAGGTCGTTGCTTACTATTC ; retrieve measured PBM binding z-score.
2.89

###

# Test system: THRa homodimer (NR concentration 90 nM)
# assay-text: PBM binding z-score (relative to random genomic background probes); higher = stronger binding; sequences stand for … in GC…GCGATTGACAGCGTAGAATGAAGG
Quick rule for you: PBM binding z-score at -0.09 or higher means label 1, lower means label 0.

{"sequence-string": "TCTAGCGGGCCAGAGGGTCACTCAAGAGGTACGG", "assigned-label": "label 0"}

Moving on to another sequence below.
Textbook exercise: given the entry ACAGACAGGTGATGACGGTAACTCAGGCTATCAT , state whether its PBM binding z-score is greater than or equal to -0.09.
label 1

###

Consider the following sequences and their measured PBM binding z-score readings.
# Tested on: LXRb homodimer (NR concentration 270 nM)
# assay-text: PBM binding z-score (relative to random genomic background probes); higher = stronger binding; sequences stand for … in GC…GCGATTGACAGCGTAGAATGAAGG

{"sequence-string": "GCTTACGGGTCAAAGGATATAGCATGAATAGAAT", "PBM binding z-score": 0.261}
{"sequence-string": "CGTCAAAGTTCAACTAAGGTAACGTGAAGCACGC", "PBM binding z-score": 1.83}
{"sequence-string": "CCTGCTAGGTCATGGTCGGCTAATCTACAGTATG", "PBM binding z-score": -0.492}
{"sequence-string": "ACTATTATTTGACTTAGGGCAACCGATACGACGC", "PBM binding z-score": 1.46}

Give LXRb homodimer (NR concentration 270 nM) PBM binding z-score for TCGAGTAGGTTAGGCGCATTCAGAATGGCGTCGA
-1.16

LXRb homodimer (NR concentration 270 nM) / PBM binding z-score / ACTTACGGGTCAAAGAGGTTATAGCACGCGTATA : value?
0.72
